# System: SF-539 CNS
# Assay: NCI tumour cell line growth inhibition, 48 h
The following molecules are shown together with reported TGI values.
Report the figure in µM without appending any unit label.

[
  {
    "Smiles Str": "CCN1C(=O)C(=C/C=C/c2ccc(OC)cc2)C(=O)N(CC)C1=S",
    "System Name": "SF-539 CNS",
    "TGI (µM)": 40.4
  }
]

Next molecule, TGI to be filled in.
State the recorded TGI for this entry: `Cc1cc(NS(=O)(=O)c2ccc(Nc3c4ccccc4nc4c(C(=O)Nc5ccc(S(N)(=O)=O)cc5)cccc34)cc2)no1` 61.2

---

# System: HT29 colon
# Assay: NCI tumour cell line growth inhibition, 48 h; in the data active = GI50 below about 0.43 µM; inactive = the rest
Give one outcome, nothing more. List: Y for active, N for inactive

[
  {
    "Compound": "O=C1C(Cl)=C(Nc2cccc(O)c2)C(=O)N1CCc1ccccc1",
    "System Name": "HT29 colon",
    "Group Label": "N"
  }
]

Which outcome was assigned to `CCn1c2ccccc2c2cc(/C=C(/C#N)C(N)=S)ccc21` in this test? N

Which outcome was assigned to `CCNCCCn1c2c(c3ccc(F)cc3c1=O)C(=O)c1cc(OC)cnc1-2` in this test? Y

Which outcome was assigned to COc1cccc2c1C(=O)c1c(O)c3c(c(O)c1C2=O)CC(O)(/C(C)=N/NC(=O)CCCCC(=O)N/N=C(\C)C1(O)Cc2c(O)c4c(c(O)c2C(OC2CC(N)C(O)C(C)O2)C1)C(=O)c1c(OC)cccc1C4=O)CC3OC1CC(N)C(O)C(C)O1 (stereo not drawn) in this test? Y

Which outcome was assigned to CCOC(=O)c1ccc2c(c1)[n+](=O)c(C(=O)C1CCCS1)c(C(F)(F)F)n2[O-] (stereo not drawn) in this test? Y

Which outcome was assigned to C=C1c2c(C)nn(-c3ccc(OC)cc3)c2N(C)C23C[C@@H]1C1(C)c4c(C)nn(-c5ccc(OC)cc5)c4N(C)C(C)(C[C@H]12)C3 (stereo partly drawn) in this test? N

Which outcome was assigned to `Brc1ccc(SCN(CSc2ccc(Br)cc2)Cc2ccccc2)cc1` in this test? N

Which outcome was assigned to `CCOC(=O)/C=C/C1=C(c2ccsc2)c2ccc(OC)cc2CC1` in this test? Y

---

# Test system: SK-MEL-2 melanoma
# Assay: NCI tumour cell line growth inhibition, 48 h; in the data active means GI50 below about 0.43 µM; inactive means the rest
Give one outcome, nothing more. List: YES (active), NO (inactive)

[
  {
    "Smiles Str": "O=C(/C=C/c1cc2ccccc2[nH]c1=O)c1ccc(Cl)cc1",
    "Group Label": "NO"
  },
  {
    "Smiles Str": "COc1ccc2c(c1)oc1c(C)c3c(c(C)c12)C(=O)N(N)C3=O",
    "Group Label": "NO"
  },
  {
    "Smiles Str": "COc1ncc(-c2ccc3nccc(C#CCCCCC(=O)O)c3c2)cc1NS(=O)(=O)c1ccc(F)cc1F",
    "Group Label": "NO"
  },
  {
    "Smiles Str": "O=C1c2ccccc2C(=O)c2c1c(=O)c(=O)c1ccccc1c(=O)n2Cc1ccccc1",
    "Group Label": "NO"
  },
  {
    "Smiles Str": "O=C(Nc1cccc(-n2ccc3c(NC(=O)c4ccccc4)nccc32)c1)Nc1ccc(Cl)c(C(F)(F)F)c1",
    "Group Label": "YES"
  },
  {
    "Smiles Str": "O=c1c2c([nH]c3ccccc13)CCCC2",
    "Group Label": "NO"
  }
]

// next entry
Which outcome was assigned to `N#C/C(=C\c1cn(Cc2ccccc2)c2ccccc12)C(=O)Nc1ncc(Cc2ccccc2Cl)s1` in this test? NO
